# target system: BACE1 in primary mouse cortical neurons (mouse, UniProt P56818 46-501)
# Sequence (P56818 46-501): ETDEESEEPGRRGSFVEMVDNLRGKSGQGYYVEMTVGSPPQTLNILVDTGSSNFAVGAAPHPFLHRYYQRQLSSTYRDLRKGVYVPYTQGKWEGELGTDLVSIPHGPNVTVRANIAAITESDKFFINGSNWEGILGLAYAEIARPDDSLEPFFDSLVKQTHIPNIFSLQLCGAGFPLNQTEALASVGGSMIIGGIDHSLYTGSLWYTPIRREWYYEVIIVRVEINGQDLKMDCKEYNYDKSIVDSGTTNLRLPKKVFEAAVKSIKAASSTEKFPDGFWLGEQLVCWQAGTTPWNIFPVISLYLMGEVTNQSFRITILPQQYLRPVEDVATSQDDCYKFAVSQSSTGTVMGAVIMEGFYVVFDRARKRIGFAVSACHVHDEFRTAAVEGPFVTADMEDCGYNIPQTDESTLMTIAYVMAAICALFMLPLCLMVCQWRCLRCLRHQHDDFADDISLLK
# assay remarks: cell-based or functional assay
So I've got a bunch of binders here, and I need their IC50, Abeta x-40 in mouse cortical neurons values.
Just the number please, in nM, no unit attached.

Kindly note the recorded IC50, Abeta x-40 in mouse cortical neurons for 6290 (antibody, V domains shown, anti-BACE1 IgG) VH: QLQLQESGPGLVKPSETLSLTCTVSGGSISSSSYYWGWIRQPPGKGLEWIGMIYYSGSTWYNPSLKSRVTISVDTSKNQFSLKLSSVTAADTAVYYCARVGLGVSYFDLWGRGTLVTVSS VL: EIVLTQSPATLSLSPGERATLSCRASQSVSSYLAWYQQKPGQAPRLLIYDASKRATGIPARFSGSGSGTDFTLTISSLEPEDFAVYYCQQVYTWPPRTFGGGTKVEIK , which is 3.17

Kindly note the recorded IC50, Abeta x-40 in mouse cortical neurons for 6273 (antibody, V domains shown, anti-BACE1 IgG) VH: QVQLVQSGAEVKKPGSSVKVSCKASGGTFSGYGISWVRQAPGQGLEWMGNIIPGFGTANYAQKFQGRVTITADESTSTAYMELSSLRSEDTAVYYCARSGGTKYGMLDVWGQGTMVTVSS VL: EIVMTQSPATLSVSPGERATLSCRASQSVSSNIAWYQQKPGQAPRLLIYGASTRATGIPARFSGSGSGTEFTLTISSLQSEDFAVYYCQQLLLWPPRTFGGGTKVEIK , which is 5.71

Kindly note the recorded IC50, Abeta x-40 in mouse cortical neurons for 5984 (antibody, V domains shown, anti-BACE1 IgG) VH: QLQLQESGPGLVKPSETLSLTCTVSGGSISSSSYYWGWIRQPPGKGLEWIGNIYYSGSTYYNPSLKGRVTISVDTSKNQFSLKLSSVTAADTAVYYCARLGHGYNYFDLWGRGTLVTVSS VL: EIVLTQSPATLSLSPGERATLSCRASQSVSSYLAWFQQKPGQAPRLLIYDASNRATGIPARFSGSGSGTDFTLTISSLEPEDFAVYYCQQVYVWPPRTFGGGTKVEIK , which is 22.6
